These data points were gathered from the supplement of paper PMC11246515.

METHOD_SUMMARY: total protein half-life in vivo (active degradation + dilution); higher = more stable protein
ASSAY_CONTEXT: wild type E. coli NCM3722; growth: N-lim chemostat; doubling time 6 h
Kindly state total protein half-life in vivo for each of the entries shown.
One number for each entry, in h.

Some sequences with recorded total protein half-life in vivo:
Give its total protein half-life in vivo value. Item: MHCPFCFAVDTKVIDSRLVGEGSSVRRRRQCLVCNERFTTFEVAELVMPRVVKSNDVREPFNEEKLRSGMLRALEKRPVSSDDVEMAINHIKSQLRATGEREVPSKMIGNLVMEQLKKLDKVAYIRFASVYRSFEDIKEFGEEIARLED [P0A8D0]
4.15

Then this sequence: `MAELSDQEMLRYNRQIILRGFDFDGQEALKDSRVLIVGLGGLGCAASQYLASAGVGNLTLLDFDTVSLSNLQRQTLHSDATVGQPKVESARDALTRINPHIAITPVNALLDDAELAALIAEHDLVLDCTDNVAVRNQLNAGCFAAKVPLVSGAAIRMEGQITVFTYQDGEPCYRCLSRLFGENALTCVEAGVMAPLIGVIGSLQAMEAIKMLAGYGKPASGKIVMYDAMTCQFREMKLMRNPGCEVCGQ`
4.66

Then this sequence: MNLQHHFLIAMPALQDPIFRRSVVYICEHNTNGAMGIIVNKPLENLKIEGILEKLKITPEPRDESIRLDKPVMLGGPLAEDRGFILHTPPSNFASSIRISDNTVMTTSRDVLETLGTDKQPSDVLVALGYASWEKGQLEQEILDNAWLTAPADLNILFKTPIADRWREAAKLIGVDILTMPGVAGHA [P0A8W5]
4.39

Could you report total protein half-life in vivo for every entry in the following list?
1. MQTKKNEIWVGIFLLAALLAALFVCLKAANVTSIRTEPTYTLYATFDNIGGLKARSPVSIGGVVVGRVADITLDPKTYLPRVTLEIEQRYNHIPDTSSLSIRTSGLLGEQYLALNVGFEDPELGTAILKDGDTIQDTKSAMVLEDLIGQFLYGSKGDDNKNSGDAPAAAPGNNETTEPVGTTK
2. MVDQAQDTLRPNNRLSDMQATMEQTQAFENRVLERLNAGKTVRSFLITAVELLTEAVNLLVLQVFRKDDYAVKYAVEPLLDGDGPLGDLSVRLKLIYGLGVINRQEYEDAELLMALREELNHDGNEYAFTDDEILGPFGELHCVAALPPPPQFEPADSSLYAMQIQRYQQAVRSTMVLSLTELISKISLKKAFQK [P0AF10]

[6.08, 3.54]

Could you report total protein half-life in vivo for every entry in the following list?
1. MSDVLRPYRDLFPQIGQRVMIDDSSVVIGDVRLADDVGIWPLVVIRGDVHYVQIGARTNIQDGSMLHVTHKSSYNPDGNPLTIGEDVTVGHKVMLHGCTIGNRVLVGMGSILLDGAIVEDDVMIGAGSLVPQNKRLESGYLYLGSPVKQIRPLSDEEKAGLRYSANNYVKWKDEYLDQGNQTQP [P0A9W9]
2. MMSTTLFKDFTFEAAHRLPHVPEGHKCGRLHGHSFMVRLEITGEVDPHTGWIIDFAELKAAFKPTYERLDHHYLNDIPGLENPTSEVLAKWIWDQVKPVVPLLSAVMVKETCTAGCIYRGE
3. MLARGKTNLKIEEIRMHKHHEIHRVKPLMPALCRIRQGKKVINWETHTLTVDNNQIILFPCGYEFYIENYPEAGLYLAEMLYLPIDLIESFQKLYTVTDQIRNKTSFFLPQNPELIYCWEQLKTSVSRGFSTKIQEHLAMGVLLSLGVNHVNHLLLSYSKQSLISRCYNLLLSEPGTKWTANKVARYLYISVSTLHRRLASEGVSFQSILDDVRLNNALSAIQTTVKPISEIARENGYKCPSRFTERFHNRFNITPREIRKASRE

1. 5.36
2. 7.08
3. 4.12
